testedSystem: PI3K p110α/p85 (Homo sapiens, UniProt P42336)
Sequence (P42336 whole entry): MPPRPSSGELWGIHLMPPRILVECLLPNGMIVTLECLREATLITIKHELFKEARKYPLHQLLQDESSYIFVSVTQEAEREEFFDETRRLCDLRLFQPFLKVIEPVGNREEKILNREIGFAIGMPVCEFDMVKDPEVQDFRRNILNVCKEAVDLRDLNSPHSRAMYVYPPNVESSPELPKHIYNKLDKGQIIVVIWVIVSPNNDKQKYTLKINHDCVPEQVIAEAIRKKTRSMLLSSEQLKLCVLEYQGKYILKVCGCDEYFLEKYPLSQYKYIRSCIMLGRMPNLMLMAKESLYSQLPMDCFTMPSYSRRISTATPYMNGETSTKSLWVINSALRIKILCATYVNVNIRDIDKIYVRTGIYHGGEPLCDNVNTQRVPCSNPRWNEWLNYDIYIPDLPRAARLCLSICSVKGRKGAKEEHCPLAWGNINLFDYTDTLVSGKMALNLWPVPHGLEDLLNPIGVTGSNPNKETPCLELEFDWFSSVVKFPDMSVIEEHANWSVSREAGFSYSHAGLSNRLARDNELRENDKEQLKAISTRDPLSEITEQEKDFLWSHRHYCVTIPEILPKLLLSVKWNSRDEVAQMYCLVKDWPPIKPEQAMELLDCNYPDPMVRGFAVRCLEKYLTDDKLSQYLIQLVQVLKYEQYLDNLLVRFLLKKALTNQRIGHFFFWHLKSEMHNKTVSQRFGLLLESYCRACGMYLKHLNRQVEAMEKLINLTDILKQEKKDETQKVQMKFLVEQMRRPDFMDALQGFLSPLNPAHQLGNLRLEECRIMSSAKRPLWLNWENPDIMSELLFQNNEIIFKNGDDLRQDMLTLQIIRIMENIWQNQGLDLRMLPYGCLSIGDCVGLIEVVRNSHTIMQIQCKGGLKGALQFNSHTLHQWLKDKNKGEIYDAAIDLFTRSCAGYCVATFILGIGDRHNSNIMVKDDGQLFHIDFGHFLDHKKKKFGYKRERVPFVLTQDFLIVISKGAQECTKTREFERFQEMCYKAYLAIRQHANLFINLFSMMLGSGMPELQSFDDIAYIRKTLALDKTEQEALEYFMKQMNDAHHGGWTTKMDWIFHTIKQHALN
Sequence (P27986 whole entry partner): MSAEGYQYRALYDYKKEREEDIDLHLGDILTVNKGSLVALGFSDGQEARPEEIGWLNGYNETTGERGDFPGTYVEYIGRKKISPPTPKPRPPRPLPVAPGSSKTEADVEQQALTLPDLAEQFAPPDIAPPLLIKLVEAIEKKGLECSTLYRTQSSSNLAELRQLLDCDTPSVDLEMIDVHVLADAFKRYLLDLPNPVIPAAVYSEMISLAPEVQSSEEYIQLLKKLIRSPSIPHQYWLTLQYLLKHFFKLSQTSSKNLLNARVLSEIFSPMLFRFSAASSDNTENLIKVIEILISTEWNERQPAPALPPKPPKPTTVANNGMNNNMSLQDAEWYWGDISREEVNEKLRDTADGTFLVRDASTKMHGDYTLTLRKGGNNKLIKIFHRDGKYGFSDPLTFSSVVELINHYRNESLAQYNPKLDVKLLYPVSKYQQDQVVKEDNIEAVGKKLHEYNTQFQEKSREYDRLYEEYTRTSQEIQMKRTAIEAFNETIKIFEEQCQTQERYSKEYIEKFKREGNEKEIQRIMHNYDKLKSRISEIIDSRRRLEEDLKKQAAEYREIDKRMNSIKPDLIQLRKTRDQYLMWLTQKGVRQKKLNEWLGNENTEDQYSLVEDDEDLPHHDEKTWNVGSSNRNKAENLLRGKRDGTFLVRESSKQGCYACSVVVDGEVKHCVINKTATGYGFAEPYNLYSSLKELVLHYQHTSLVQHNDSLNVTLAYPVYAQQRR
assayProtocol: PI3K assay ([γ33P]ATP, PtdIns/PtdSer coated plates)
assayContext: 2 μM ATP, 1 hour at RT; read-out: IC50 (PI3Kα)
Recorded IC50 for the following compounds

{"compound": "CCC(C)n1c(S(C)(=O)=O)nc2c(-c3cccc(O)c3)nc(N3CCOCC3)nc21 (centres unmarked)", "testedSystem": "PI3K p110α/p85 (Homo sapiens, UniProt P42336)", "IC50": "< 1000 nM"}
{"compound": "CC(=O)Nc1cccc(-c2nc(N3CCOCC3)nc3c2ncn3-c2ccccc2)c1", "testedSystem": "PI3K p110α/p85 (Homo sapiens, UniProt P42336)", "IC50": "> 5000 nM"}
{"compound": "COCCn1cnc2c(-c3cncc(F)c3)nc(N3CCOCC3)nc21", "testedSystem": "PI3K p110α/p85 (Homo sapiens, UniProt P42336)", "IC50": "1000 to 5000 nM"}
{"compound": "Nc1ccc(-c2nc(N3CCOCC3)nc3c2ncn3C2CCCC2)cn1", "testedSystem": "PI3K p110α/p85 (Homo sapiens, UniProt P42336)", "IC50": "< 1000 nM"}
{"compound": "CC(C)C(C)n1cnc2c(-c3cccc4[nH]ccc34)nc(N3CCOCC3)nc21 (centres unmarked)", "testedSystem": "PI3K p110α/p85 (Homo sapiens, UniProt P42336)", "IC50": "< 1000 nM"}
{"compound": "c1cc(-c2nc(N3CCOCC3)nc3c2ncn3CCC2OCCCO2)c2cc[nH]c2c1", "testedSystem": "PI3K p110α/p85 (Homo sapiens, UniProt P42336)", "IC50": "< 1000 nM"}
{"compound": "c1cc(-c2nc(N3CCOCC3)nc3c2ncn3C2CCOC2)c2cc[nH]c2c1 (centres unmarked)", "testedSystem": "PI3K p110α/p85 (Homo sapiens, UniProt P42336)", "IC50": "< 1000 nM"}
{"compound": "O=C(Cc1cccnc1)N1CCC(n2cnc3c(-c4cccc5[nH]ccc45)nc(N4CCOCC4)nc32)CC1", "testedSystem": "PI3K p110α/p85 (Homo sapiens, UniProt P42336)", "IC50": "< 1000 nM"}
